- MEASURED TARGET: GLP-1 receptor (GLP-1R) (human, UniProt P43220 24-463)
- ASSAY INFO: cell-based or functional assay
Starred links: 1 amine or outer side, 2 acyl side, 3 side chain; linkers in the order of their positions; H or OH if unused. Non-standard residues stand in square brackets, D forms with d. Groups on a side chain read outwards from the residue. Primed or numbered codes have the meaning given here. No end group written: not given here. *: point of attachment. γGlu = O=C(O)[C@H](CCC(=O)[*:2])N[*:1]; Stearoyl = CCCCCCCCCCCCCCCCCC(=O)*; αMeF = C[C@](N)(Cc1ccccc1)C(=O)O; αMeK = C[C@](N)(CCCCN)C(=O)O; αMeS = C[C@](N)(CO)C(=O)O; PEG2′ = not defined here; Aib = CC(C)(N)C(=O)O
RECORDED METRIC: cAMP Mean pM GLP-1R (pM)
Numeric only. Scale: pM

H[Aib]EGS[αMeF]TSK([PEG2′-PEG2′-γGlu-Stearoyl])V[αMeS]S[αMeF]LEGEAA[αMeK]E[αMeF]IA[αMeF]VV[αMeK]GG-NH2 [SEQ ID NO 120] :: 3640
H[Aib]EGS[αMeF]TSDV[αMeS]S[αMeF]LEGEAA[αMeK]E[αMeF]IA[αMeF]VV[αMeK]GK([PEG2′-PEG2′-γGlu-Stearoyl])-NH2 [SEQ ID NO 99] :: 54
H[Aib]EGS[αMeF]TSDV[αMeS]S[αMeF]K([PEG2′-PEG2′-γGlu-Stearoyl])EGEAA[αMeK]E[αMeF]IA[αMeF]VV[αMeK]GG-NH2 [SEQ ID NO 115] :: 6
H[Aib]EGS[αMeF]TSDV[αMeS]S[αMeF]LEGEAA[αMeK]E[αMeF]IA[αMeF]VK([PEG2′-PEG2′-γGlu-Stearoyl])[αMeK]GG-NH2 [SEQ ID NO 102] :: 22

Sure, the documented cAMP Mean pM GLP-1R for H[Aib]EGS[αMeF]TSDV[αMeS]S[αMeF]LEGEAA[αMeK]E[αMeF]IA[αMeF]VV[αMeK]K([PEG2′-PEG2′-γGlu-Stearoyl])G-NH2 [SEQ ID NO 100] is 15
